- Test system: KM-20L2
- Assay Comment: NCI tumour cell line growth inhibition, 48 h
Counter-ions that a name gives are not always drawn. Activity calls are given as the source filed them. No stated cut-off is given here; in the data, active = GI50 up to about 1.1 µM and inactive = higher.

| Compound | Experimental Target | GI50 |
| --- | --- | --- |
| CC(C)C(=O)Nc1nc2[nH]cnc2c(=O)[nH]1 | KM-20L2 | > 100 µM (inactive) |
| CC1=C(C(=O)Nc2ccccc2C)C(c2ccc([N+](=O)[O-])cc2)C(C(=O)Nc2ccccc2C)=C(C)N1 | KM-20L2 | 51.9 µM (inactive) |
| CCC1(c2ccncc2)CCC(=O)NC1=O (stereo not drawn) [ROGLETIMIDE] | KM-20L2 | > 100 µM (inactive) |
| CC[C@]1(O)C[C@H]2CN(CCc3c([nH]c4ccccc34)[C@@](C(=O)OC)(c3cc4c(cc3OC)N(C=O)[C@H]3[C@@](O)(C(=O)OC)[C@H](OC(C)=O)[C@]5(CC)C=CCN6CC[C@]43[C@@H]65)C2)C1 [VINCRISTINE SULFATE] | KM-20L2 | 0.106 µM (active) |
| CC(=O)CC(=O)CCCC(=O)Nc1ccc(Cl)cc1Cl | KM-20L2 | > 100 µM (inactive) |
| Nc1nncs1 | KM-20L2 | 301 µM (inactive) |
| CC(C)(C)c1cc(-c2c3nc(c(-c4cc(C(C)(C)C)cc(C(C)(C)C)c4)c4ccc([nH]4)c(-c4cc(C(C)(C)C)cc(C(C)(C)C)c4)c4nc(c(-c5cc(C(C)(C)C)cc(C(C)(C)C)c5)c5ccc2[nH]5)C=C4)C=C3)cc(C(C)(C)C)c1 | KM-20L2 | > 100 µM (inactive) |
| Cc1ccc([N+]2=NC(c3ccc([N+](=O)[O-])cc3)=NN(c3ccccc3)C2)cc1 | KM-20L2 | > 100 µM (inactive) |
| CCCCCC(O)C1C(=O)OC(C)C(O)/C=C/C=C/C=C/C=C/C=C(\C)C(O)C(O)C(O)CC(O)CC(O)CC(O)CC(O)CC1O (stereo not drawn) | KM-20L2 | 2.28 µM (inactive) |
| COc1cc([C@@H]2OC(=O)C3C2C(=O)O[C@H]3c2cc(OC)c(OC)c(OC)c2)cc(OC)c1OC (stereo partly drawn) | KM-20L2 | > 100 µM (inactive) |
| O=C1c2ccccc2C(=O)c2sc(Nc3ccc(Cl)c(Cl)c3)nc21 | KM-20L2 | 19.5 µM (inactive) |
| CC1=C2C(c3ccccc3)(c3ccccc3)C3C=CC2(C=N3)N(C(=O)NC2CCCCC2)C1=O (stereo not drawn) | KM-20L2 | 16.8 µM (inactive) |
| O=C1C=CC(CC(=O)c2ccc3ccccc3c2)O1 (stereo not drawn) | KM-20L2 | 20.5 µM (inactive) |
| O=c1[nH]cnc(NC2C=C(CO)C(O)C2O)c1[N+](=O)[O-] (stereo not drawn) | KM-20L2 | > 100 µM (inactive) |
| CC(Sc1ccccc1)C(CO)(CO)[N+](=O)[O-] (stereo not drawn) | KM-20L2 | 17.2 µM (inactive) |
| O=C(Nc1nc2ccc([N+](=O)[O-])cc2s1)C(=O)C(C(=O)c1ccncc1)C1OC(=O)c2ccccc21 (stereo not drawn) | KM-20L2 | > 100 µM (inactive) |
| O=C(O)COc1ccc(C(=O)/C(SS/C(C(=O)c2ccc(OCC(=O)O)c(Cl)c2Cl)=C2\C=C(c3ccc(Cl)cc3)SS2)=C2/C=C(c3ccc(Cl)cc3)SS2)c(Cl)c1Cl | KM-20L2 | 25.1 µM (inactive) |
| CN(C)c1n/c(=N/c2ncn[nH]2)ss1 | KM-20L2 | > 100 µM (inactive) |
